tgt: Serine protease Rv3671c (Mycobacterium tuberculosis (strain ATCC 25618 / H37Rv))
protocol-description: inhibition of M. tuberculosis membrane protease Rv3671c – biochemical, fluorescence polarization, M. tuberculosis H37Rv, primary screen (AID 2606);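 note: extracellular domain of Rv3671c used as enzyme; 0% = enzyme with DMSO and 100% = no enzyme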
run-parameters: at 5.96 µM; hits give high values
In all, about 320,000 compounds went through this assay and about 160 (0.05%) were called active. This excerpt belongs to a sample that is enriched for actives.
Record form. Attribute: inhibition. Fill in for each entry.
Unit % implied. Number only.

Query block: For the molecule "CCCc1nc2ccccc2c(C(=O)OCc2nnc(-c3cc(OC)c(OC)c(OC)c3)o2)c1CC" , what inhibition is on record?
Result block: -9.57

Query block: For the molecule "NS(=O)(=O)c1ccc(NC(=S)Nc2ccc(Br)c(Cl)c2)cc1" , what inhibition is on record?
Result block: -3.02

Query block: For the molecule "O=C(O)C1=NN(c2c(F)c(F)cc(F)c2F)C(=O)CC1" , what inhibition is on record?
Result block: -8.71

Query block: For the molecule "CN=C1C=C/C(=N/N=c2\ccn(O)cc2C)C=C1C" , what inhibition is on record?
Result block: -17.4

Query block: For the molecule "NNC(=O)c1cnn(-c2ccccc2)c1C(F)(F)F" , what inhibition is on record?
Result block: 2.2

Query block: For the molecule "COc1ccccc1NC(=S)N1CCN(C(c2ccccc2)c2ccccc2)CC1" , what inhibition is on record?
Result block: -3.52

Query block: For the molecule "O=C(Nc1sc2c(c1-c1nc3ccccc3[nH]1)CCCC2)C1CC1" , what inhibition is on record?
Result block: -3.57

Query block: For the molecule "C[C@@H](C(=O)Nc1ccc2ccccc2c1)[C@@H]1C[C@@]1(C)[C@@H](NC(=O)c1cccnc1)c1ccccc1" , what inhibition is on record?
Result block: -17.9

Query block: For the molecule "C[C@H](NS(=O)(=O)c1ccc(Cl)cc1)C(=O)OCC(=O)N1CCOCC1" , what inhibition is on record?
Result block: 3.78

Query block: For the molecule COc1cccc(C2SCC(=O)N2c2cccc(C)c2)c1OC (centres undefined) , what inhibition is on record?
Result block: 0.16

Query block: For the molecule CC1(c2ccccc2)NC(=O)N(CC(=O)N2CC(=O)Nc3ccccc32)C1=O (centres undefined) , what inhibition is on record?
Result block: -3.96

Query block: For the molecule "C=CCn1c(-c2ccc(Cl)cc2)ccc(C#N)c1=O" , what inhibition is on record?
Result block: -12.4

Query block: For the molecule "CC(=O)N1CCc2c(sc(NC(=O)CCS(=O)(=O)c3ccc(C)cc3)c2C(N)=O)C1" , what inhibition is on record?
Result block: 8.49

Query block: For the molecule "CC(=O)OCCOCn1cnn2c(=O)c(Br)c(C)nc12" , what inhibition is on record?
Result block: 9.74

Query block: For the molecule "CCOc1ccc(OCC)c(NC(=O)CN(C)S(=O)(=O)c2cccc3nsnc23)c1" , what inhibition is on record?
Result block: 4.81

Query block: For the molecule "Cc1ccccc1CCN(CC(=O)NC1CCCCC1)C(=O)c1csnn1" , what inhibition is on record?
Result block: -0.33

Query block: For the molecule "O=S(=O)(c1cc(Cl)ccc1Cl)N1CCN(Cc2ccco2)CC1" , what inhibition is on record?
Result block: -5.87

Query block: For the molecule "O=C1CN(C(=O)COc2c(Cl)cccc2Cl)c2ccccc2N1" , what inhibition is on record?
Result block: 0.62

Query block: For the molecule "O=C(COc1ccc(-c2ccccc2)cc1)NN=C1CCCC1" , what inhibition is on record?
Result block: -4.38

Query block: For the molecule "O=C(CNC(=O)c1ccccc1F)OCC(=O)c1c[nH]c2ccccc12" , what inhibition is on record?
Result block: 3.57

Query block: For the molecule CC(Sc1nnc(Cc2ccc([N+](=O)[O-])cc2)o1)C(N)=O (centres undefined) , what inhibition is on record?
Result block: -0.21

Query block: For the molecule CC(C)CC(COCc1ccc(Cl)cc1)N1CCN(C(=O)c2ccc(C(F)(F)F)cc2)CCC1=O (centres undefined) , what inhibition is on record?
Result block: -15.8

Query block: For the molecule "CCO[C@@H]1OC(C(=O)NC2CC2)=C[C@H](C)[C@H]1CCCO" , what inhibition is on record?
Result block: 3.42

Query block: For the molecule CCC(C)[C@H](NC(=O)N1c2ccccc2NC(=O)[C@@H]1C(C)C)C(=O)N[C@@H](Cc1ccccc1)C(=O)O (some centres undefined) , what inhibition is on record?
Result block: 6.36

Query block: For the molecule "CCn1c(=O)cc(SCC(=O)NCCC2=CCCCC2)c2ccccc21" , what inhibition is on record?
Result block: 3.21

Query block: For the molecule "C=CCN1CCN(C(=O)CCCc2ccccc2)CC1" , what inhibition is on record?
Result block: -7.87

Query block: For the molecule COP1(=O)C[C@@H](O)[C@@H](O)[C@@H](COCc2ccccc2)O1 (some centres undefined) , what inhibition is on record?
Result block: -2.74

Query block: For the molecule "Fc1ccccc1CCNc1nnnn1-c1ccccc1" , what inhibition is on record?
Result block: -6.29

Query block: For the molecule COc1ccc(NC(=O)C(C)SCc2ccccc2)cc1 (centres undefined) , what inhibition is on record?
Result block: 0.17

Query block: For the molecule "COc1cccc(CNc2ncc(-c3ccccc3)n2C)c1" , what inhibition is on record?
Result block: -4.35

Query block: For the molecule "O=[N+]([O-])c1ccc2nc(-c3ccccn3)[nH]c2c1" , what inhibition is on record?
Result block: 4.37

Query block: For the molecule "c1ccc2[nH]c(-c3nc4ccccc4[nH]3)nc2c1" , what inhibition is on record?
Result block: 77.5

Query block: For the molecule C=C(C)C(=O)Nc1cccc(C2=NOC3(C2)C[C@H](C(N)=O)N(C(=O)C(c2ccccc2)c2ccccc2)C3)c1 (some centres undefined) , what inhibition is on record?
Result block: -1.51

Query block: For the molecule COc1ccccc1Nc1nnc(SC(C)C(=O)NC2CC2)s1 (centres undefined) , what inhibition is on record?
Result block: 6.85

Query block: For the molecule "COCCn1c(N)c(NCc2ccccc2)c(=O)[nH]c1=O" , what inhibition is on record?
Result block: -10.5

Query block: For the molecule "Cc1ccc(-n2c(SCC(=O)Nc3ncc(Cl)cc3Cl)nc3ccccc32)cc1" , what inhibition is on record?
Result block: -17.4

Query block: For the molecule "CC(C)n1c(O)c(N=Nc2ccccn2)c2ccccc21" , what inhibition is on record?
Result block: 3.27

Query block: For the molecule "Cc1ccc2c(c1)N(CCCC(=O)NCc1cccnc1)C(=O)CO2" , what inhibition is on record?
Result block: 5.63

Query block: For the molecule "O=C(NC1CC1)C1=C[C@H](c2coc3ccccc3c2=O)C[C@H](OCCCCO)O1" , what inhibition is on record?
Result block: 2.33

Query block: For the molecule "COc1cccc(CNC(=O)Cn2c(=O)oc3cc(S(=O)(=O)N4CCCCC4)ccc32)c1" , what inhibition is on record?
Result block: -26.5

Query block: For the molecule Cc1cc(NC(=O)CN2C(=O)NC(CC(C)C)C2=O)no1 (centres undefined) , what inhibition is on record?
Result block: 2.81

Query block: For the molecule "COCc1c(C(=O)OCC(=O)Nc2ccc(OC(F)F)cc2)oc2ccccc12" , what inhibition is on record?
Result block: -1.7

Query block: For the molecule OC(COCc1ccco1)CN1CCN(c2ccccc2)CC1 (centres undefined) , what inhibition is on record?
Result block: 5.86

Query block: For the molecule "COCCOC(=O)c1sc(=S)n(CCOC)c1N" , what inhibition is on record?
Result block: 40
